biological target: T1, Monkey plasma Kallikrein (monkey (Macaca mulatta), UniProt A0A1D5Q7U7 391-638); test: enzyme inhibition assay
T1 construct: domain: catalytic domain; also called mPK
T1 sequence (A0A1D5Q7U7 entry or part of it): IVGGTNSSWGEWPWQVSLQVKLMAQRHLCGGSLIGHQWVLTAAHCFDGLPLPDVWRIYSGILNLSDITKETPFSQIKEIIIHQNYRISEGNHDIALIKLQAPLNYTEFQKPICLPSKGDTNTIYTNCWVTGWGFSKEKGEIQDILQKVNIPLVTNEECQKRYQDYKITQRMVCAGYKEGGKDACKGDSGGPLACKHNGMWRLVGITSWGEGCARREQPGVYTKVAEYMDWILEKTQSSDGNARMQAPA
Numbered stars: 1 amine (or outer) side, 2 acyl side, 3 side chain; on linkers, the order of the positions; unused ones are H or OH. Bridge positions count the residues as written; N and C are the ends. Ends that are not written are not given here. TBMB = c1c(C[*:1])cc(C[*:3])cc1C[*:2]
Overview of recorded Ki for various binders
quantityName: Ki

INSERT INTO measurements (binder, quantityname, testresult) VALUES
  ('ACFKHCRVACA (linker 2-6-10 via TBMB, also called PK123) [3B8]', 'Ki', '9 nM'),
  ('H-ACSDRFRNCPADEALCG-NH2 (linker 2-9-16 via TBMB, 6x6 bicyclic peptide) [PK15]', 'Ki', '4 nM'),
  ('ACTYPYKCLHQNLCA (linker 2-8-14 via TBMB, also called PK112) [2A10]', 'Ki', '23 nM'),
  ('ACRWPARCTHQNYCA (linker 2-8-14 via TBMB; not fully specified (N-terminus, C-terminus), also called PK106) [06-54 (2A2)]', 'Ki', '6 nM'),
  ('ACFKACRVNCA (linker 2-6-10 via TBMB, also called PK117) [3B3]', 'Ki', '11 nM');
